Data origin: patent US9493446B2

- ASSAY_TARGET: orexin-1 (Homo sapiens (Human), UniProt O43613)
- Sequence (O43613 whole entry): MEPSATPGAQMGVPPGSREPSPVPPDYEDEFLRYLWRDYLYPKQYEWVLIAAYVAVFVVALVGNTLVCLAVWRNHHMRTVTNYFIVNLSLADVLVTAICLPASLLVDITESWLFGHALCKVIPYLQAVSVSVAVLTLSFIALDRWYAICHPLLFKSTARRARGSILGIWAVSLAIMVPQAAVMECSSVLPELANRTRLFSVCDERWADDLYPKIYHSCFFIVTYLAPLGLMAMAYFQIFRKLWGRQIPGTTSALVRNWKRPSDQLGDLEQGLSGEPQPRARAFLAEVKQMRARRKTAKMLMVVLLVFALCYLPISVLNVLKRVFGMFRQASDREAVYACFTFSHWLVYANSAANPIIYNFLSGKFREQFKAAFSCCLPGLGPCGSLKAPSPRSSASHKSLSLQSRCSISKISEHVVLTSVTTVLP
- PROTOCOL_SUMMARY: Intracellular calcium measurement (FLIPR), CHO cells expressing human orexin-1 receptor, 3 nM orexin-A
- Assay type: cell-based
- CONDITION_CONTEXT: CHO cells expressing human orexin-1 receptor, FLIPR, 3 nM orexin-A; geometric mean if determined several times; read-out: IC50 OX1
Let's look at some molecules and their measured IC50.
Could you give me the number in nM? Just the number is fine.

Some solved entries appear below for comparison.
{"MOLECULE": "Cc1cccc(C(=O)N2CCC[C@H]2c2nc(-c3cccc(F)c3C)no2)c1-n1nccn1 [compound 251]", "IC50, nM": 626}
{"MOLECULE": "CCOc1ccccc1-c1nnc([C@@H]2CCCN2C(=O)c2cc(C)ccc2-n2nccn2)o1 [Example 454]", "IC50, nM": 1140}
{"MOLECULE": "CCOc1ccccc1-c1noc([C@@H]2CCCN2C(=O)c2ccc(C)cc2-n2nccn2)n1 [compound 256]", "IC50, nM": 43}

Query :: Specify reported IC50 for the molecule shown: CCOc1ccccc1-c1noc([C@@H]2CCCN2C(=O)c2nc(C)ccc2-n2nccn2)n1 [compound 259]
Result :: 352

Query :: Specify reported IC50 for the molecule shown: COc1c(F)cccc1-c1noc([C@@H]2CCCN2C(=O)c2cccc(C)c2-n2nccn2)n1 [compound 197]
Result :: 354

Query :: Specify reported IC50 for the molecule shown: Cc1ccc(C(=O)N2CCC[C@H]2c2nc(-c3ccccc3OC(F)F)no2)c(-n2nccn2)c1 [compound 187]
Result :: 79

Query :: Specify reported IC50 for the molecule shown: Cc1ccc(-n2cccn2)c(C(=O)N2CCC[C@H]2c2nc(-c3ccccc3OC(F)(F)F)no2)c1 [compound 137]
Result :: 33

Query :: Specify reported IC50 for the molecule shown: Cc1ccc(-n2nccn2)c(C(=O)N2CCC[C@H]2c2nc(-c3cn(C)c4ncccc34)no2)c1 [compound 51]
Result :: 15
